Values were extracted from patent US20230263822A1.

Assay Comment: Hematology assays in cynomolgus monkeys (Example 45)
Format: in vivo
Condition Description: day 85; escalating dose regimen
Catalogue of WBC count readings, one per entry.
Assay Metric: WBC count (µL⁻¹)

[
  {
    "Substance": "ISIS 417002: MOE gapmer, nucleobases 1275 to 1318 of SEQ ID NO: 1 (Table 8) (antisense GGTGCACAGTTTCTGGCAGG; MOE gapmer, wing and gap sizes not given here)",
    "Reading": 10000
  },
  {
    "Substance": "ISIS 416838: MOE gapmer, nucleobases 1018 to 1042 of SEQ ID NO: 1 (Table 6) (antisense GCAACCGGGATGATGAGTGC; MOE gapmer, wing and gap sizes not given here)",
    "Reading": 12000
  }
]

###

Assay Comment: Hematology assays in cynomolgus monkeys (Example 45)
Type: in vivo
Condition Description: day −5
Catalogue of basophils readings, one per entry.

[
  {
    "Substance": "ISIS 417002: MOE gapmer, nucleobases 1275 to 1318 of SEQ ID NO: 1 (Table 8) (antisense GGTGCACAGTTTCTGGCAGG; MOE gapmer, wing and gap sizes not given here)",
    "basophils [%]": 0.3
  },
  {
    "Substance": "ISIS 416864: MOE gapmer, nucleobases 1275 to 1318 of SEQ ID NO: 1 (Table 8) (antisense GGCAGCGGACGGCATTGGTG; MOE gapmer, wing and gap sizes not given here)",
    "basophils [%]": 0.2
  },
  {
    "Substance": "ISIS 416838: MOE gapmer, nucleobases 1018 to 1042 of SEQ ID NO: 1 (Table 6) (antisense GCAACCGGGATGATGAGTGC; MOE gapmer, wing and gap sizes not given here)",
    "basophils [%]": 0.3
  },
  {
    "Substance": "ISIS 416850: MOE gapmer, nucleobases 1275 to 1318 of SEQ ID NO: 1 (Table 8) (antisense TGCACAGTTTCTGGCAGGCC; MOE gapmer, wing and gap sizes not given here)",
    "basophils [%]": 0.2
  },
  {
    "Substance": "ISIS 416858: MOE gapmer, nucleobases 1275 to 1318 of SEQ ID NO: 1 (Table 8) (antisense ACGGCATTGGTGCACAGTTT; MOE gapmer, wing and gap sizes not given here)",
    "basophils [%]": 0.3
  }
]

###

Tested on: human Factor 11 mRNA
Assay Comment: Dose-dependent inhibition of human Factor 11 in HepG2 cells, electroporation 0.7-20 uM (Example 4)
Format: cell-based
Condition Description: 0.7 μM, relative to untreated control cells
Strand notation (5' to 3'): a small letter for the sugar, then the base; units joined by * are phosphorothioate-linked, units joined directly phosphodiester-linked; [ ] holds rarer units or linkages, { } end groups; capitals alone tell only the bases. e = 2'-O-(2-methoxyethyl) (MOE); [5mC] = 5-methylcytosine; d = 2'-deoxy (DNA)
Assay Metric: percent inhibition of Factor 11 at 0.7 μM

[
  {
    "Substance": "416895 (antisense eT*eA*eT*dG*d[5mC]*d[5mC]*d[5mC]*dT*dT*d[5mC]*dA*dT*dG*dT*d[5mC]*dT*dA*eG*eG*eT) [compound 416895]",
    "Reading": "0%"
  },
  {
    "Substance": "413467 (antisense eG*eG*eT*e[5mC]*e[5mC]*dA*d[5mC]*dA*dT*dA*dA*dA*dT*dG*dT*e[5mC]*eT*eT*eT*eG) [compound 413467]",
    "Reading": "5%"
  },
  {
    "Substance": "416842 (antisense eT*eG*eA*eG*eA*dT*dT*d[5mC]*dT*dT*dT*dG*dG*dG*d[5mC]*e[5mC]*eA*eT*eT*e[5mC]) [compound 416842]",
    "Reading": "0%"
  },
  {
    "Substance": "416945 (antisense eA*eA*dT*dG*dT*d[5mC]*dT*dT*dT*dG*dT*dT*dG*d[5mC]*dA*eA*eG*e[5mC]*eG*e[5mC]) [compound 416945]",
    "Reading": "48%"
  },
  {
    "Substance": "416984 (antisense e[5mC]*eA*dA*d[5mC]*d[5mC]*dG*dG*dG*dA*dT*dG*dA*dT*dG*dA*eG*eT*eG*e[5mC]*eA) [compound 416984]",
    "Reading": "43%"
  },
  {
    "Substance": "416985 (antisense eG*e[5mC]*dA*dA*d[5mC]*d[5mC]*dG*dG*dG*dA*dT*dG*dA*dT*dG*eA*eG*eT*eG*e[5mC]) [compound 416985]",
    "Reading": "12%"
  }
]

###

Catalogue of fibrinogen levels readings, one per entry.
Tested on: fibrinogen
Assay Comment: Fibrinogen assay (Example 45)
Format: in vivo, cynomolgus monkeys
Condition Description: plasma; day −5; escalating dose regimen

[
  {
    "Substance": "ISIS 416838: MOE gapmer, nucleobases 1018 to 1042 of SEQ ID NO: 1 (Table 6) (antisense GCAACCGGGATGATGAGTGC; MOE gapmer, wing and gap sizes not given here)",
    "fibrinogen levels / mg/dL": 205
  },
  {
    "Substance": "ISIS 416850: MOE gapmer, nucleobases 1275 to 1318 of SEQ ID NO: 1 (Table 8) (antisense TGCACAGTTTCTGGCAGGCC; MOE gapmer, wing and gap sizes not given here)",
    "fibrinogen levels / mg/dL": 261
  },
  {
    "Substance": "ISIS 417002: MOE gapmer, nucleobases 1275 to 1318 of SEQ ID NO: 1 (Table 8) (antisense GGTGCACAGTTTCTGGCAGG; MOE gapmer, wing and gap sizes not given here)",
    "fibrinogen levels / mg/dL": 222
  },
  {
    "Substance": "ISIS 416864: MOE gapmer, nucleobases 1275 to 1318 of SEQ ID NO: 1 (Table 8) (antisense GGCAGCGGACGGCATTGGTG; MOE gapmer, wing and gap sizes not given here)",
    "fibrinogen levels / mg/dL": 243
  },
  {
    "Substance": "ISIS 416858: MOE gapmer, nucleobases 1275 to 1318 of SEQ ID NO: 1 (Table 8) (antisense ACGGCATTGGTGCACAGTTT; MOE gapmer, wing and gap sizes not given here)",
    "fibrinogen levels / mg/dL": 246
  }
]

###

Catalogue of ALT readings, one per entry.
Condition Description: rat, in vivo, sc, 50 mg/kg
e = 2'-O-(2-methoxyethyl) (MOE); d = 2'-deoxy (DNA)
Assay Metric: ALT

[
  {
    "Substance": "ISIS 445509: 5-8-5 or 6-8-6 MOE microwalk gapmer (Table 44) (antisense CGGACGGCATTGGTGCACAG; sugars from the 5' end e6 d8 e6, backbone and methylation of C not given here)",
    "Assay Metric": "ALT",
    "Reading": "676 IU/L"
  },
  {
    "Substance": "ISIS 445498: 5-8-5 or 6-8-6 MOE microwalk gapmer (Table 44) (antisense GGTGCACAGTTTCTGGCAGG; sugars from the 5' end e6 d8 e6, backbone and methylation of C not given here)",
    "Assay Metric": "ALT",
    "Reading": "417 IU/L"
  },
  {
    "Substance": "ISIS 445505: 5-8-5 or 6-8-6 MOE microwalk gapmer (Table 44) (antisense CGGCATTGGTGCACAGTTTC; sugars from the 5' end e6 d8 e6, backbone and methylation of C not given here)",
    "Assay Metric": "ALT",
    "Reading": "356 IU/L"
  },
  {
    "Substance": "ISIS 445504: 5-8-5 or 6-8-6 MOE microwalk gapmer (Table 44) (antisense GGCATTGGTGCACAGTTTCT; sugars from the 5' end e6 d8 e6, backbone and methylation of C not given here)",
    "Assay Metric": "ALT",
    "Reading": "206 IU/L"
  },
  {
    "Substance": "ISIS 445530: 5-8-5 or 6-8-6 MOE microwalk gapmer (Table 44) (antisense GCATTGGTGCACAGTTTC; sugars from the 5' end e5 d8 e5, backbone and methylation of C not given here)",
    "Assay Metric": "ALT",
    "Reading": "116 IU/L"
  },
  {
    "Substance": "ISIS 445513: 5-8-5 or 6-8-6 MOE microwalk gapmer (Table 44) (antisense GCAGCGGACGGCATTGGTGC; sugars from the 5' end e6 d8 e6, backbone and methylation of C not given here)",
    "Assay Metric": "ALT",
    "Reading": "214 IU/L"
  }
]

###

Test system: human Factor 11 mRNA
Assay Comment: Dose-dependent inhibition of human Factor 11 in HepG2 cells, electroporation 0.7-20 uM (Example 4)
Assay type: cell-based
Condition Description: 0.7 μM, relative to untreated control cells
Strand notation (5' to 3'): a small letter for the sugar, then the base; units joined by * are phosphorothioate-linked, units joined directly phosphodiester-linked; [ ] holds rarer units or linkages, { } end groups; capitals alone tell only the bases. e = 2'-O-(2-methoxyethyl) (MOE); [5mC] = 5-methylcytosine; d = 2'-deoxy (DNA)
Assay Metric: percent inhibition of Factor 11 at 0.7 μM (%)

[
  {
    "Substance": "413474 (antisense eA*eG*e[5mC]*eA*eA*d[5mC]*d[5mC]*dG*dG*dG*dA*dT*dG*dA*dT*eG*eA*eG*eT*eG) [compound 413474]",
    "Study System": "human Factor 11 mRNA",
    "Reading": 0
  },
  {
    "Substance": "416838 (antisense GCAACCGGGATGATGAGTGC; 5-10-5 gapmer, further chemistry not given here) [compound 416838]",
    "Study System": "human Factor 11 mRNA",
    "Reading": 5
  },
  {
    "Substance": "416878 (antisense eG*eG*eT*d[5mC]*d[5mC]*dA*d[5mC]*dA*dT*dA*dA*dA*dT*dG*dT*d[5mC]*dT*eT*eT*eG) [compound 416878]",
    "Study System": "human Factor 11 mRNA",
    "Reading": 1
  },
  {
    "Substance": "416850 (antisense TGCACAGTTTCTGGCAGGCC; 5-10-5 gapmer, further chemistry not given here) [compound 416850]",
    "Study System": "human Factor 11 mRNA",
    "Reading": 14
  },
  {
    "Substance": "416969 (antisense eG*e[5mC]*d[5mC]*d[5mC]*dT*dT*d[5mC]*dA*dT*dG*dT*d[5mC]*dT*dA*dG*eG*eT*e[5mC]*e[5mC]*eA) [compound 416969]",
    "Study System": "human Factor 11 mRNA",
    "Reading": 25
  },
  {
    "Substance": "416999 (antisense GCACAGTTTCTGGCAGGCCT; 2-13-5 gapmer chemistry, further chemistry not given here) [compound 416999]",
    "Study System": "human Factor 11 mRNA",
    "Reading": 20
  },
  {
    "Substance": "416896 (antisense eT*eT*eA*dT*dG*d[5mC]*d[5mC]*d[5mC]*dT*dT*d[5mC]*dA*dT*dG*dT*d[5mC]*dT*eA*eG*eG) [compound 416896]",
    "Study System": "human Factor 11 mRNA",
    "Reading": 12
  },
  {
    "Substance": "416993 (antisense e[5mC]*eT*dT*dT*dG*dA*dG*dA*dT*dT*d[5mC]*dT*dT*dT*dG*eG*eG*e[5mC]*e[5mC]*eA) [compound 416993]",
    "Study System": "human Factor 11 mRNA",
    "Reading": 22
  },
  {
    "Substance": "416858 (antisense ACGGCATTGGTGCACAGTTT; 5-10-5 gapmer, further chemistry not given here) [compound 416858]",
    "Study System": "human Factor 11 mRNA",
    "Reading": 5
  },
  {
    "Substance": "416989 (antisense eG*eA*dG*dA*dT*dT*d[5mC]*dT*dT*dT*dG*dG*dG*d[5mC]*d[5mC]*eA*eT*eT*e[5mC]*e[5mC]) [compound 416989]",
    "Study System": "human Factor 11 mRNA",
    "Reading": 32
  },
  {
    "Substance": "416825 (antisense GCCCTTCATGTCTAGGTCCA; 5-10-5 gapmer, further chemistry not given here) [compound 416825]",
    "Study System": "human Factor 11 mRNA",
    "Reading": 27
  }
]
